target: human D2S dopamine (hD2S-DA) receptors (Homo sapiens); experiment: Competition radioligand binding, hD2s DA ([3H]Spiperone)
Sequence (P14416 1-414 isoform P14416-2): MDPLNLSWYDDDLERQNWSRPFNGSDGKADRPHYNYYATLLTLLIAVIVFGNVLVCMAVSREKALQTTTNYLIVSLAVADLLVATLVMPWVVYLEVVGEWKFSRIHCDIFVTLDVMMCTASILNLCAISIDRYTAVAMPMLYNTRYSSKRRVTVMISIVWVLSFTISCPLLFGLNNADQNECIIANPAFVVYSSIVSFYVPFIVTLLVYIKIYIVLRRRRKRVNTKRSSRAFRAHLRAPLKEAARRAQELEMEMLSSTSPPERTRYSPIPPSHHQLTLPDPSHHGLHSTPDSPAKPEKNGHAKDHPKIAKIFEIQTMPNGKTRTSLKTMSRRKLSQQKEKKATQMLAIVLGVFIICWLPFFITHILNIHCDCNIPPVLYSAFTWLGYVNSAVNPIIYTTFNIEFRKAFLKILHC
pKi: −log10 of the molar value.
Short version: pKi at least 6 is true, less is false.

- MOLECULE: "CN1CCC[C@H]1CCN(Cc1ccc(Cl)cc1)Cc1ccc(O)cc1Cl"
  SYSTEM: "human D2S dopamine (hD2S-DA) receptors (Homo sapiens)"
  CATEGORY LABEL: "true"
- MOLECULE: "Cc1ccc(C)c(CN(CCC2CCCN2C)Cc2ccccc2)c1 (stereo not drawn)"
  SYSTEM: "human D2S dopamine (hD2S-DA) receptors (Homo sapiens)"
  CATEGORY LABEL: "true"
- MOLECULE: "COc1cc(CN(CC[C@@H]2CCCN2C)Cc2ccc(Cl)cc2)ccc1O"
  SYSTEM: "human D2S dopamine (hD2S-DA) receptors (Homo sapiens)"
  CATEGORY LABEL: "false"
- MOLECULE: "Cc1ccc(CN(CC[C@@H]2CCCN2C)Cc2ccccc2)cc1"
  SYSTEM: "human D2S dopamine (hD2S-DA) receptors (Homo sapiens)"
  CATEGORY LABEL: "true"
- MOLECULE: "Cc1cc(CN(CC[C@@H]2CCCN2C)Cc2cccc(O)c2)cc(C)c1O"
  SYSTEM: "human D2S dopamine (hD2S-DA) receptors (Homo sapiens)"
  CATEGORY LABEL: "false"
- MOLECULE: "Cc1cc(CN(CC[C@@H]2CCCN2C)Cc2ccc(Cl)cc2)cc(C)c1O"
  SYSTEM: "human D2S dopamine (hD2S-DA) receptors (Homo sapiens)"
  CATEGORY LABEL: "false"
- MOLECULE: "CN1CCCC1CCN(Cc1cccc(O)c1)Cc1cccc(O)c1 (racemic)"
  SYSTEM: "human D2S dopamine (hD2S-DA) receptors (Homo sapiens)"
  CATEGORY LABEL: "false"
- MOLECULE: "Cc1cc(CN(CC[C@@H]2CCCN2C)Cc2ccc(Cl)cc2)oc1C"
  SYSTEM: "human D2S dopamine (hD2S-DA) receptors (Homo sapiens)"
  CATEGORY LABEL: "false"
- MOLECULE: "CN1CCC[C@H]1CCN(Cc1ccc(C(C)(C)C)cc1)Cc1cccc(O)c1"
  SYSTEM: "human D2S dopamine (hD2S-DA) receptors (Homo sapiens)"
  CATEGORY LABEL: "false"
- MOLECULE: "COc1ccc(CN(CC[C@@H]2CCCN2C)Cc2cccc(O)c2)cc1"
  SYSTEM: "human D2S dopamine (hD2S-DA) receptors (Homo sapiens)"
  CATEGORY LABEL: "false"
- MOLECULE: "CN1CCC[C@H]1CCN(Cc1ccc(O)cc1)Cc1cccc(O)c1"
  SYSTEM: "human D2S dopamine (hD2S-DA) receptors (Homo sapiens)"
  CATEGORY LABEL: "false"

====

biological target: human 5-HT2a receptors (Homo sapiens, UniProt P28223); assay: Competition radioligand binding, h5-HT2a ([3H]Ketanserin)

- MOLECULE: "CCc1ccc(CN(CCC2CCCN2C)Cc2ccccc2)cc1 (stereo not drawn) [Example 28]"
  Ki [nM]: 73
- MOLECULE: "CN1CCC[C@H]1CCN(Cc1cccc(O)c1)Cc1ccc2ccccc2c1 [Example 34]"
  Ki [nM]: 61
- MOLECULE: "CN1CCC[C@H]1CCN(Cc1ccc(O)cc1)Cc1ccc(Cl)cc1 [Example 49]"
  Ki [nM]: 148
- MOLECULE: "Cc1c(CN(CC[C@@H]2CCCN2C)Cc2ccc(Cl)cc2)sc2ccccc12 [Example 52]"
  Ki [nM]: 76
- MOLECULE: "CN1CCCC1CCN(Cc1ccccc1)Cc1ccc(C(C)(C)C)cc1 (stereo not drawn) [Example 31]"
  Ki [nM]: 130
- MOLECULE: "CN1CCCC1CCN(Cc1ccccc1)Cc1cccc2ccccc12 (stereo not drawn) [Example 25]"
  Ki [nM]: 87

====

Recorded Ki for the following molecules
target: human 5-HT6 (h5-HT6) receptors (Homo sapiens); construct: purchased Receptor Biology, Inc. (Beltsville, Md.); host or cells: HEK-293 cells; assay: Competition radioligand binding, h5-HT6 ([3H]LSD); settings: membranes of HEK-293 cells, 1 hr RT
Sequence (P50406 whole entry): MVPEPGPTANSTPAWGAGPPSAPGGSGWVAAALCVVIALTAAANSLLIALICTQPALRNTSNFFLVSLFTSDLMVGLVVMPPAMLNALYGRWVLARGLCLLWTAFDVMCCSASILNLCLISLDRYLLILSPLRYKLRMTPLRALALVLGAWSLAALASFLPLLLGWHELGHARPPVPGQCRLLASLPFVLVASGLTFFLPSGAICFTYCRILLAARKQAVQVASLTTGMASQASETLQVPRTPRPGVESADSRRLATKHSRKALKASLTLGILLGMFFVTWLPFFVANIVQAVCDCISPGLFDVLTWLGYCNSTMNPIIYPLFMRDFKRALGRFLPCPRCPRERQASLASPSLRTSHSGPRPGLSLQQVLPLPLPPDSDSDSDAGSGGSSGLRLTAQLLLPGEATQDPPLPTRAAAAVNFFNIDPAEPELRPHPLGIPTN

- MOLECULE: "Cc1cc(CN(CC[C@@H]2CCCN2C)Cc2ccc(Cl)cc2)cc(C)c1O"
  Ki: "71 nM"
- MOLECULE: "CCN1CCC[C@H]1CCN(Cc1ccc(C)cc1)Cc1ccc(C)cc1"
  Ki: "300 nM"
- MOLECULE: "CC(C)c1ccc(CN(CCC2CCCN2C)Cc2ccccc2)cc1 (stereo not drawn)"
  Ki: "71 nM"

====

biological target: human D2S dopamine (hD2S-DA) receptors (Homo sapiens); experiment: Competition radioligand binding, hD2s DA ([3H]Spiperone)
pKi: −log10 of the molar value.
Each entry below carries its reported pKi.

- COMPOUND: "Cc1cccc(CN(CCC2CCCN2C)Cc2ccccc2)c1 (stereo not shown)"
  pKi: 6.18
- COMPOUND: "CSc1ccc(CN(CC[C@@H]2CCCN2C)Cc2ccc(Cl)cc2)cc1"
  pKi: 5.95
- COMPOUND: "COc1cccc(CN(CCC2CCCN2C)Cc2ccccc2)c1 (stereo not shown)"
  pKi: 6.11
- COMPOUND: "CN1CCCC1CCN(Cc1ccccc1)Cc1ccc(C(C)(C)C)cc1 (stereo not shown)"
  pKi: 5.92
- COMPOUND: "CN1CCC[C@H]1CCN(Cc1ccc(Cl)cc1)Cc1ccc(O)c(Cl)c1"
  pKi: 6.00
- COMPOUND: "Cc1c(CN(CC[C@@H]2CCCN2C)Cc2ccc(Cl)cc2)sc2ccccc12"
  pKi: 5.95
- COMPOUND: "CN1CCC[C@H]1CCN(Cc1ccc(O)cc1)Cc1ccc(Cl)cc1"
  pKi: 5.88
